Task for the reader: assign each of the following compounds its reported PHOSPHORUS.
- Organism: Rattus norvegicus
- protocol: DrugMatrix - Regimen: Daily Repeat
- Assay type: toxicity, organism-based, Sprague-Dawley
- Set-up: regimen Daily Repeat, gender Male, age 6-8 weeks
- reported conditions: in vivo, po, 0 mg/kg, 72 h, tissue Plasma, route oral GAVAGE, dose level Control, time 3 day, vehicle 100 % WATER
Hi! Could you send only the number? It should be in mg/dL, unit omitted.

Query: Note down PHOSPHORUS recorded for Nc1ccn([C@@H]2CS[C@H](CO)O2)c(=O)n1 [LAMIVUDINE]
Result: 11.18

Query: Note down PHOSPHORUS recorded for C[C@@H]1C[C@@H]([C@H](O)CC2CC(=O)NC(=O)C2)C(=O)[C@@H](C)C1 [CYCLOHEXIMIDE]
Result: 12.95

Query: Note down PHOSPHORUS recorded for COc1cc2ncnc(Nc3ccc(F)c(Cl)c3)c2cc1OCCCN1CCOCC1 [GEFITINIB]
Result: 11

Query: Note down PHOSPHORUS recorded for COC(=O)C1=C(C)NC(C)=C(C(=O)OCC(C)C)C1c1ccccc1[N+](=O)[O-] (stereo not given) [NISOLDIPINE]
Result: 9.75

Query: Note down PHOSPHORUS recorded for Cc1ncc([N+](=O)[O-])n1CCO [METRONIDAZOLE]
Result: 11.95

---

- Species: Rattus norvegicus
- protocol: DrugMatrix - Regimen: Daily Repeat
- Type: toxicity, organism-based, Sprague-Dawley
- Parameters: regimen Daily Repeat, gender Male, age 6-8 weeks
- reported conditions: in vivo, po, 0 mg/kg, 72 h, tissue Blood, route oral GAVAGE, dose level Control, time 3 day, vehicle 100 % WATER
readout: ERYTHROCYTE COUNT (x10E6/uL)
Hi! Could you send only the number? It should be in x10E6/uL, unit omitted.

Query: Note down ERYTHROCYTE COUNT recorded for CC(C)C[C@H](NC(=O)[C@@H](O)[C@H](N)Cc1ccccc1)C(=O)O
Result: 5.7

Query: Note down ERYTHROCYTE COUNT recorded for CC(C)(C)c1ccc(C(=O)CCCN2CCC(OC(c3ccccc3)c3ccccc3)CC2)cc1
Result: 5.26

Query: Note down ERYTHROCYTE COUNT recorded for COC(=O)C1=C(C)NC(C)=C(C(=O)OCC(C)C)C1c1ccccc1[N+](=O)[O-] (centres undefined)
Result: 5.35

Query: Note down ERYTHROCYTE COUNT recorded for ClC(Cl)Cl [CHLOROFORM]
Result: 5.57

---

Task for the reader: assign each of the following compounds its reported CHOLESTEROL.
- Species: Rattus norvegicus
- protocol: DrugMatrix - Regimen: Daily Repeat
- Format: toxicity, organism-based, Sprague-Dawley
- Set-up: regimen Daily Repeat, gender Male, age 6-8 weeks
- reported conditions: in vivo, po, 0 mg/kg, 72 h, tissue Plasma, route oral GAVAGE, dose level Control, time 3 day, vehicle .5 % CMC
Hi! Could you send only the number? It should be in mg/dL, unit omitted.

Query: Note down CHOLESTEROL recorded for C[C@](O)(CS(=O)(=O)c1ccc(F)cc1)C(=O)Nc1ccc(C#N)c(C(F)(F)F)c1 [(R)-BICALUTAMIDE]
Result: 66.83

Query: Note down CHOLESTEROL recorded for CNC(=C[N+](=O)[O-])NCCSCc1ccc(CN(C)C)o1
Result: 71.17

Query: Note down CHOLESTEROL recorded for O=C1CCC(N2C(=O)c3ccccc3C2=O)C(=O)N1 (stereo not drawn) [THALIDOMIDE]
Result: 71.17

Query: Note down CHOLESTEROL recorded for CO[C@H]1/C=C/O[C@@]2(C)Oc3c(C)c(O)c4c(c3C2=O)C2=NC3(CCN(CC(C)C)CC3)NC2=C(NC(=O)/C(C)=C\C=C\[C@H](C)[C@H](O)[C@@H](C)[C@@H](O)[C@@H](C)[C@H](OC(C)=O)[C@@H]1C)C4=O
Result: 71.17

Query: Note down CHOLESTEROL recorded for CC(=O)CC(c1ccccc1)c1c(O)c2ccccc2oc1=O (stereo not drawn)
Result: 76.67

Query: Note down CHOLESTEROL recorded for CC(C)[C@H]1CC[C@H](C(=O)N[C@H](Cc2ccccc2)C(=O)O)CC1 [NATEGLINIDE]
Result: 72

Query: Note down CHOLESTEROL recorded for O=[N+]([O-])c1ccccc1
Result: 78.83

Query: Note down CHOLESTEROL recorded for CN1CCC(=C2c3ccccc3C=Cc3ccccc32)CC1
Result: 76.5
